tested on: Micrococcus luteus ATCC 9341; assay: Antibacterial activity MIC, two-fold agar dilution; type: cell-based; details: ATCC9341; Micrococcus luteus ATCC 9341; Muller-Hinton agar, 37° C., 20 hours; read-out: Antibacterial Activity MIC
Criterion: MIC strictly under 0.2 µg/mL. Met: fulfilled. Not met: not fulfilled.

{"compound": "C[n+]1c(N)cc(SCC2=C(C(=O)[O-])N3C(=O)[C@@H](NC(=O)/C(=N\\OCC(=O)O)c4csc(N)n4)[C@H]3SC2)nc1N [Compound I-17]", "qualitative.label": "not fulfilled"}
{"compound": "C#CCO/N=C(\\C(=O)N[C@@H]1C(=O)N2C(C(=O)[O-])=C(CSc3cc(N)[n+](CC)c(N)n3)CS[C@H]12)c1csc(N)n1 [Compound I-15]", "qualitative.label": "fulfilled"}
{"compound": "CC[n+]1c(SCC2=C(C(=O)[O-])N3C(=O)[C@@H](NC(=O)/C(=N\\OC)c4csc(N)n4)[C@H]3SC2)cc(N)nc1N [Compound I-8]", "qualitative.label": "fulfilled"}
{"compound": "C[n+]1c(N)nc(N)nc1SCC1=C(C(=O)[O-])N2C(=O)C(NC(=O)/C(=N\\OC(C)(C)C(=O)O)c3csc(N)n3)[C@H]2SC1 (stereo partly drawn) [Compound I-23]", "qualitative.label": "not fulfilled"}
{"compound": "CCO/N=C(\\C(=O)N[C@@H]1C(=O)N2C(C(=O)[O-])=C(CSc3cc(N)[n+](C)c(N)n3)CS[C@H]12)c1nsc(N)n1 [Compound I-10]", "qualitative.label": "fulfilled"}
{"compound": "CC[n+]1c(N)cc(SCC2=C(C(=O)[O-])N3C(=O)[C@@H](NC(=O)/C(=N\\OCC(=O)O)c4csc(N)n4)[C@H]3SC2)nc1N [Compound I-18]", "qualitative.label": "not fulfilled"}
{"compound": "CC[n+]1c(N)cc(SCC2=C(C(=O)[O-])N3C(=O)[C@@H](NC(=O)/C(=N\\OC)c4csc(N)n4)[C@H]3SC2)nc1N [Compound I-22]", "qualitative.label": "fulfilled"}
{"compound": "CC[n+]1c(N)cc(SCC2=C(C(=O)[O-])N3C(=O)[C@@H](NC(=O)/C(=N\\OC(C)C(=O)O)c4csc(N)n4)[C@H]3SC2)nc1N (stereo partly drawn) [Compound I-20]", "qualitative.label": "not fulfilled"}
{"compound": "C[n+]1c(SCC2=C(C(=O)[O-])N3C(=O)[C@@H](NC(=O)/C(=N\\OC(C)(C)C(=O)O)c4csc(N)n4)[C@H]3SC2)cc(N)nc1N [Compound I-1]", "qualitative.label": "not fulfilled"}
{"compound": "CC[n+]1c(N)cc(SCC2=C(C(=O)[O-])N3C(=O)[C@@H](NC(=O)/C(=N\\OC(C)(C)C(=O)O)c4csc(N)n4)[C@H]3SC2)nc1N [Compound I-13]", "qualitative.label": "not fulfilled"}
{"compound": "CO/N=C(\\C(=O)N[C@@H]1C(=O)N2C(C(=O)[O-])=C(CSc3cc(N)[n+](C)c(N)n3)CS[C@H]12)c1csc(N)n1 [Compound I-21]", "qualitative.label": "fulfilled"}
{"compound": "CO/N=C(\\C(=O)N[C@@H]1C(=O)N2C(C(=O)[O-])=C(CSc3cc(N)nc(N)[n+]3C)CS[C@H]12)c1csc(N)n1 [Compound I-7]", "qualitative.label": "fulfilled"}
